Source of measurements: PubChem BioAssay AID2060903

Tested on: 377384-186-R-J1-PDC complex spheroid viability;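 also: spheroids exposed to compounds for seven days before readout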
Experiment: Anticancer human tumor 377384-186-R-J1-PDC patient-derived pancreatic carcinoma cell line growth inhibition [RAS]
Conditions: second compound 0.0949 µM; first compound 10 µM; active compounds read low
measurementKind: viability, T/C (%)
I only need the number, in %, no unit after it.

# get_value(readout='viability, T/C', item= CCC(CC)c1cc(NC2CCC(N)C2)n2nccc2n1 (stereo not drawn) + CCn1c(-c2cccnc2C(C)OC)c2c3cc(ccc31)N1CCOC(CC(NC(=O)C(C(C)C)N(C)C(=O)C3(F)CCN(C(=O)C#CC(C)(C)N(C)C)CC3)C(=O)N3CCCC(N3)C(=O)OCC(C)(C)C2)C1 )
4.2

# get_value(readout='viability, T/C', item= C[C@@H](NC(=O)c1ncnc(N)c1Cl)c1ncc(C(=O)Nc2cc(C(F)(F)F)c(Cl)cn2)s1 + CCn1c(-c2cccnc2C(C)OC)c2c3cc(ccc31)N1CCOC(CC(NC(=O)C(C(C)C)N(C)C(=O)C3(F)CCN(C(=O)C#CC(C)(C)N(C)C)CC3)C(=O)N3CCCC(N3)C(=O)OCC(C)(C)C2)C1 )
99.6

# get_value(readout='viability, T/C', item= CC(C)NCC(C(=O)N1CCN(c2ncnc3c2C(C)CC3O)CC1)c1ccc(Cl)cc1 (stereo not drawn) + CCn1c(-c2cc(N3CCN(C)CC3)cnc2C(C)OC)c2c3cc(ccc31)-c1csc(n1)CC(NC(=O)C1CC1C)C(=O)N1CCCC(N1)C(=O)OCC(C)(C)C2 )
0.17

# get_value(readout='viability, T/C', item= CC(C)NCC(C(=O)N1CCN(c2ncnc3c2C(C)CC3O)CC1)c1ccc(Cl)cc1 (stereo not drawn) + CCn1c(-c2cccnc2C(C)OC)c2c3cc(ccc31)N1CCOC(CC(NC(=O)C(C(C)C)N(C)C(=O)C3(F)CCN(C(=O)C#CC(C)(C)N(C)C)CC3)C(=O)N3CCCC(N3)C(=O)OCC(C)(C)C2)C1 )
29.3

# get_value(readout='viability, T/C', item= Cc1nc(N2CCC3(CC2)COC(C)C3N)c(CO)nc1Sc1ccnc(N)c1Cl (stereo not drawn) + CCn1c(-c2cc(N3CCN(C)CC3)cnc2C(C)OC)c2c3cc(ccc31)-c1csc(n1)CC(NC(=O)C1CC1C)C(=O)N1CCCC(N1)C(=O)OCC(C)(C)C2 )
0.2

# get_value(readout='viability, T/C', item= NC1c2ccccc2OC12CCN(c1cnc3c(N4CCCc5ncccc54)n[nH]c3n1)CC2 (stereo not drawn) + CCn1c(-c2cc(N3CCN(C)CC3)cnc2C(C)OC)c2c3cc(ccc31)-c1csc(n1)CC(NC(=O)C1CC1C)C(=O)N1CCCC(N1)C(=O)OCC(C)(C)C2 )
0.29

# get_value(readout='viability, T/C', item= CC1(O)CCCC1n1c(=O)c(C(F)F)cc2cnc(NC3CCN(S(C)(=O)=O)CC3)nc21 (stereo not drawn) + CCn1c(-c2cc(N3CCN(C)CC3)cnc2C(C)OC)c2c3cc(ccc31)-c1csc(n1)CC(NC(=O)C1CC1C)C(=O)N1CCCC(N1)C(=O)OCC(C)(C)C2 )
2.3

# get_value(readout='viability, T/C', item= CC1(O)CCCC1n1c(=O)c(C(F)F)cc2cnc(NC3CCN(S(C)(=O)=O)CC3)nc21 (stereo not drawn) + CCn1c(-c2cccnc2C(C)OC)c2c3cc(ccc31)N1CCOC(CC(NC(=O)C(C(C)C)N(C)C(=O)C3(F)CCN(C(=O)C#CC(C)(C)N(C)C)CC3)C(=O)N3CCCC(N3)C(=O)OCC(C)(C)C2)C1 )
6.19
